Where do these numbers come from? They come from patent US20200369765A1.

Molecular target: T1, Human Siglec-5 (human, UniProt O15389 17-551)
T1 construct: Expressed on transfected CHO cells; also called HuSiglec-5
T1 sequence: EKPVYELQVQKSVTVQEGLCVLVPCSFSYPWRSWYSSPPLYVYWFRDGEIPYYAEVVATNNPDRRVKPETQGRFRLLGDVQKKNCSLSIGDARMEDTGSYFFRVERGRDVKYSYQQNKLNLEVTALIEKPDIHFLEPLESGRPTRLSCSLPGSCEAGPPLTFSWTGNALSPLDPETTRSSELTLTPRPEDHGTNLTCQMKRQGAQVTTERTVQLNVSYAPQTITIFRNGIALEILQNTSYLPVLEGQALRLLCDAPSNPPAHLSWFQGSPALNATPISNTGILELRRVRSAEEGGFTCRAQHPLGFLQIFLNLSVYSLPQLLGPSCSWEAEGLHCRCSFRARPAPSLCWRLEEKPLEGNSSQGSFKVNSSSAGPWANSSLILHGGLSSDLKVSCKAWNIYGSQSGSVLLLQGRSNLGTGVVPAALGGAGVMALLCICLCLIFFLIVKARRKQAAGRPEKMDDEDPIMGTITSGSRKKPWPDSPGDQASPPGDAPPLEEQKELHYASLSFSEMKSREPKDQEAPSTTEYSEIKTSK
Assay: flow cytometry, CHO transfectants
quantity-measured: binding result

INSERT INTO assay_data (binder, val) VALUES
  ('mAb4 (antibody, human IgG1, V domains shown) VH: DVQLVESGGDLVKPGGSLKLSCAASGFAFSSYDMSWVRQSPEKRLEWIAHIGSGGGNIYYPDTVKGRFTISRDNAKNTLYLQMRSLKSEDTAMYYCARLIFTTGFYGMDYWGQGTSVTVSS VL: DIQMTQTTSSLSASLGDRVTISCRASQDISSYLNWYQQKPDGTIKLLIYYTSRLHSGVPSRFSGSGSGTDYSLTISNLDQDDIATYFCQQGNALPWTFGGGTKLEIK', 'no binding'),
  ('mAbA (antibody, human IgG1, V domains shown) VH: QVQLQQPGAELVKPGSPVKLSCKASYFTFTSYWMHWVRQRPGQGLEWIGEINPSNGHTNYNEKFESKATLTVDRSSSTAYMQLSSLTSEDSAVFYCANGVESYDFDDALDYWGQGTSVTVSS VL: DIQMTQTTSSLSASLGDRVTISCRASQDINNYLNWYQQKPDGTIKLLIYYTSRLHSGVPSRFSGSGSGTDYSLTINNLEQEDIATYFCQQGNTLPFTFGGGTKLEIK', 'no binding');
